test target: natural β-amyloid peptide β-AP1-40 (human)
Sequence (peptide, as listed by the source): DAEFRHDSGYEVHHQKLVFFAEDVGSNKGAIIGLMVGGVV
experiment: cell-based or functional assay
* marks the point of attachment. Cholyl = C[C@H](CCC(=O)*)[C@H]1CC[C@H]2[C@@H]3[C@H](O)C[C@@H]4C[C@H](O)CC[C@]4(C)[C@H]3C[C@H](O)[C@]12C
Could you please report measured % Inhibition of Plateau; nucleation assay; 100 mole % for the items listed next?
# output: bare number, implied unit %

Exam item: # get_value(readout='% Inhibition of Plateau; nucleation assay; 100 mole %', item= Cholyl-LVFFA-OH (SMILES CC(C)C[C@H](NC(=O)CC[C@@H](C)[C@H]1CC[C@H]2[C@@H]3[C@H](O)C[C@@H]4C[C@H](O)CC[C@]4(C)[C@H]3C[C@H](O)[C@]12C)C(=O)N[C@H](C(=O)N[C@@H](Cc1ccccc1)C(=O)N[C@@H](Cc1ccccc1)C(=O)N[C@@H](C)C(=O)O)C(C)C) [cholyl-Aβ17-21] )
Marked response: 100

Exam item: // repeat for Cholyl-QKLVFF-OH (SMILES CC(C)C[C@H](NC(=O)[C@H](CCCCN)NC(=O)[C@H](CCC(N)=O)NC(=O)CC[C@@H](C)[C@H]1CC[C@H]2[C@@H]3[C@H](O)C[C@@H]4C[C@H](O)CC[C@]4(C)[C@H]3C[C@H](O)[C@]12C)C(=O)N[C@H](C(=O)N[C@@H](Cc1ccccc1)C(=O)N[C@@H](Cc1ccccc1)C(=O)O)C(C)C) [cholyl-Aβ15-20] and report
Marked response: 100

Hello, the source for this data is patent US7658917, in case you need it.
